TESTED_SYSTEM: T1, human TL1A (Fitzgerald, Prod. #30R-AT070) (human, UniProt O95150 72-251, limits assumed, biotinylated with EZ-Link Sulfo-NHS-LC-Biotin where used as soluble antigen)
T1 construct: also called TNFSF15; biotinylated human TL1A
T1 sequence (looked up): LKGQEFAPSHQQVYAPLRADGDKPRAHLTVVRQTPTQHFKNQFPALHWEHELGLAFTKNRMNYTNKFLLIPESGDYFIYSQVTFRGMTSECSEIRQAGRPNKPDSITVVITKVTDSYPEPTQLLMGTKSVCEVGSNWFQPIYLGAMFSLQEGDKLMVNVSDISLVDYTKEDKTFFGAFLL
EXPERIMENTAL_DETAILS: capture lift screen and Fab ELISA on coated TL1A
ASSAY_ENDPOINT: binding result

Guide cases for binding result, answers given:
BINDER	ASSAY_ENDPOINT	RECORDED_VALUE
clone 22 Fab (12835 framework variant) (Fab, V domains shown, Fab) VH: QVQLVQSGAEVKKPGASVKLSCKASGFDIQDTYMHWVRQAPGQGLEWMGRIDPASGHTKYDPKFQVRVTMTTDTSTSTVYMELSSLRSEDTAVYYCSRSGGLPDVWGQGTTVTVSS VL: EIVLTQSPGTLSLSPGERVTMSCRASSSVSYMYWYQQKPGQAPRPWIYATSNLASGVPDRFSGSGSGTDFTLTISRLEPEDFAVYYCQQWSGNPRTFGGGTKLEIK	binding result	binds
clone 5-2 Fab (12835 framework variant) (Fab, V domains shown, Fab) VH: QVQLVQSGAEVKKPGASVKLSCKASGFDIQDTYMHWVRQAPGQGLEWMGRIDPASGHTKYDPKFQVRVTMTRDTSTSTVYMELSSLRSEDTAVYYCSRSGGLPDVWGQGTTVTVSS VL: EIVLTQSPGTLSLSPGERVTMSCRASSSVSYMYWYQQKPGQAPRPWIYATSNLASGVPDRFSGSGSGTDYTLTISRLEPEDFAVYYCQQWSGNPRTFGGGTKLEIK	binding result	binds
18-7 (CDR-grafted LC) Fab (Fab, V domains shown, Fab; also called clone 18-7) VH: QVQLVQSGAEVKKPGASVKLSCKASGFDIQDTYMHWVRQAPGQGLEWMGRIDPASGHTKYDPKFQVRVTMTRDTSTSTVYMELSSLRSEDTAVYYCSRSGGLPDVWGQGTTVTVSS VL: EIVLTQSPGTLSLSPGERATLSCRASSSVSYMYWYQQKPGQAPRLLIYATSNLASGIPDRFSGSGSGTDFTLTISRLEPEDFAVYYCQQWSGNPRTFGGGTKLEIK	binding result	binds
clone 20-7 Fab (12835 framework variant) (Fab, V domains shown, Fab) VH: QVQLVQSGAEVKKPGASVKLSCKASGFDIQDTYMHWVRQAPGQGLEWMGRIDPASGHTKYDPKFQVRVTMTRDTSTSTVYMELSSLRSEDTAVYYCARSGGLPDVWGQGTTVTVSS VL: EIVLTQSPGTLSLSPGERATLSCRASSSVSYMYWYQQKPGQAPRLLIYATSNLASGVPDRFSGSGSGTDYTLTISRLEPEDFAVYYCQQWSGNPRTFGGGTKLEIK	binding result	binds
clone 2-3 Fab (12835 framework variant) (Fab, V domains shown, Fab) VH: QVQLVQSGAEVKKPGASVKLSCKASGFDIQDTYMHWVRQAPGQGLEWMGRIDPASGHTKYDPKFQVRVTMTTDTSTSTVYMELSSLRSEDTAVYYCSRSGGLPDVWGQGTTVTVSS VL: EIVLTQSPGTLSLSPGERATLSCRASSSVSYMYWYQQKPGQAPRPWIYATSNLASGIPDRFSGSGSGTDYTLTISRLEPEDFAVYYCQQWSGNPRTFGGGTKLEIK	binding result	binds

Moving on to the next binder.
## Input Name the recorded binding result for 12835 (humanized 5C3D11) Fab (Fab, V domains shown, Fab) VH: QVQLVQSGAEVKKPGASVKLSCKASGFDIQDTYMHWVRQAPGQGLEWMGRIDPASGHTKYDPKFQVRVTMTTDTSTSTVYMELSSLRSEDTAVYYCSRSGGLPDVWGQGTTVTVSS VL: EIVLTQSPGTLSLSPGERVTMSCRASSSVSYMYWYQQKPGQAPRPWIYATSNLASGVPDRFSGSGSGTDYTLTISRLEPEDFAVYYCQQWSGNPRTFGGGTKLEIK .
## Output binds
